Biological target: T1, GFP-9S library array, motif 4 ND N98A;D124Q (synthetic construct, N98A;D124Q)
T1 chain: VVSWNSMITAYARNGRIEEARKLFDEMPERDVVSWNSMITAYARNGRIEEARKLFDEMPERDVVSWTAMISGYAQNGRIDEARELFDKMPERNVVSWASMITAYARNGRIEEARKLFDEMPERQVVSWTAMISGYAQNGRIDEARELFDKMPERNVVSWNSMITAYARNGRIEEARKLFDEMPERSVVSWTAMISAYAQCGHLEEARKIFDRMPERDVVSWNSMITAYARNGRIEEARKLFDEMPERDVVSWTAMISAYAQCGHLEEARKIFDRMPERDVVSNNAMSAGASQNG
Experiment: high-throughput RNA pulldown from lysate on Ni-NTA beads; HRP: 50 mM Tris pH 8, 150 mM NaCl, 1 mM beta-mercaptoethanol, 50 ug/ml BSA, 3 ug/ml yeast RNA, 0.5% heparin; ITC and FP: Tris pH 8, 200 mM KCl, 5% glycerol; MST: 50 mM Tris pH 8, 200 mM NaCl, 1 mM DTT, BSA, heparin, 0.05% Tween 20
Details: tags: N-terminal His-eGFP; label: 5' Cy5
readout name: Kd
Report field: quantity (unit follows the number).

// sample AUUACACGUGA (ssRNA) [Cy5-rpoA] , its Kd was 249 nM

// sample AUUAGACGUGA (ssRNA) [Cy5-rpoA-G] , its Kd was 174 nM
